# experimental system: mASH1L PHD domain (residue 2573–2624) E2585A (mouse, UniProt Q99MY8 2573-2624, E2585A)
# experiment: ITC
Primed or numbered codes have the meaning given here. Where no end group is shown, it is not given here. [ ]: non-standard residue; d: D form. Me3″ = trimethylation (trimethyl-lysine); Lys(Me2) = CN(C)CCCC[C@H](N)C(=O)O
quantity kind: Kd (µM)
Numbers only, in µM.

Answered cases to consult:
binder: ARTK(Me)QTARKSTGGKA (peptide, UniProt P68431 2-16, looked up, histone H3, residues 1-15; also called H3K4me1; H3K4me; source: synthetic peptide (MIMOYOPES, Wuxi, China)) [histone H3 (1–15) peptide, monomethylated on lysine 4]
value: 140

binder: ARTK(Me3″)QTARKSTGGKA (peptide, UniProt P68431 2-16, looked up, histone H3, residues 1-15; also called H3K4me3; source: synthetic peptide (MIMOYOPES, Wuxi, China)) [histone H3 (1–15) peptide, trimethylated on lysine 4]
value: 49

We now examine a further binder.
**Query** Bench note: what Kd did ART[Lys(Me2)]QTARKSTGGKA (also called H3K4me2; H3K4me2 peptide (1–15); source: synthetic peptide (MIMOYOPES, Wuxi, China)) [histone H3 (1–15) peptide, dimethylated on lysine 4] show?
**Result** 174
